The origin of these recorded values is patent US20240279215A1.

- assay.target: UniProtKB P43490
- assay.name: NMN fluorescence biochemical assay (human recombinant NAMPT enzyme assay)
metric.name: AC1.4 Human (µM)
Return type: number; implicit unit µM.

Identify measured AC1.4 Human associated with O=C(Nc1ccc(CC2CCN(CC(F)(F)F)CC2)cc1)OCc1cnco1 [Compound 70]
0.61

Return reported AC1.4 Human. Input compound: Cc1n[nH]cc1C(=O)N(C)Cc1ccc(NC(=O)OCc2ccc(Cl)cc2)cc1 [Compound 197]
1.75

Report measured AC1.4 Human; entry is CS(=O)(=O)C1CN(Cc2ccc(NC(=O)OCc3ccc(Cl)cc3)cc2)C1 [Compound 222]
2.05

Identify measured AC1.4 Human corresponding to CC(C)(C)OC(=O)N1CCC2(CC(Cc3ccc(NC(=O)OCc4cnco4)cc3F)C2)C1 (stereo not shown) [Compound 377]
1.08

----------
Task for the reader: assign each of the following molecules its reported AC1.4 Human.
- assay.target: human NAMPT (Homo sapiens (Human))
- Sequence (P43490 whole entry): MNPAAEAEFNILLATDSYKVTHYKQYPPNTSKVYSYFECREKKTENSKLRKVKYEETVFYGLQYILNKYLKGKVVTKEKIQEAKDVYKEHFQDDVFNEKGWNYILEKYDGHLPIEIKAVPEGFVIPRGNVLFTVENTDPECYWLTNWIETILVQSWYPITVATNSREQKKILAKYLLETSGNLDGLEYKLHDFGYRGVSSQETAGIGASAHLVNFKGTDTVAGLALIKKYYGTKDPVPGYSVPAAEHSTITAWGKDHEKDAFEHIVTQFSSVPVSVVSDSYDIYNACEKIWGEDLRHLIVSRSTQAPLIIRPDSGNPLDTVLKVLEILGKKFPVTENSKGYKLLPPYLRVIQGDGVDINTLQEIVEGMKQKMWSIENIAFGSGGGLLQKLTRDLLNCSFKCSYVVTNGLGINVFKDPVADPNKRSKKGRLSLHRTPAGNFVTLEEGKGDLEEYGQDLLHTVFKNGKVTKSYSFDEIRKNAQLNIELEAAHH
- assay.name: NMN fluorescence biochemical assay (human recombinant NAMPT enzyme assay)
The reply should read as a number followed by its unit.

Jot down AC1.4 Human (human NAMPT (Homo sapiens (Human))) of COc1ccc(COC(=O)Nc2ccc(CNC(=O)c3ccc(C)nc3)cc2)cc1 .
0.51 µM

Give the observed AC1.4 Human of O=C(Nc1ccc(CC(=O)N2CCC(F)(F)CC2)cc1)OCc1ccc(Cl)cc1 for human NAMPT (Homo sapiens (Human)).
3.32 µM

Fill in AC1.4 Human for Cn1cc(COC(=O)Nc2ccc(Cc3ccncc3)cc2)cn1 tested with human NAMPT (Homo sapiens (Human)).
25.86 µM

Report AC1.4 Human from human NAMPT (Homo sapiens (Human)) testing of O=C(Nc1ccc(CC(=O)N2CCC[C@H](O)C2)cc1)OCc1ccc(Cl)cc1
1.43 µM

With human NAMPT (Homo sapiens (Human)) as the test system, provide measured AC1.4 Human for this molecule: C[C@H](NC(=O)c1ccc(C(F)F)nc1)c1ccc(NC(=O)OCc2ccc(Cl)cc2)cc1
1.38 µM

Give AC1.4 Human for CCc1cc(C(=O)N[C@@H](C)c2ccc(NC(=O)OCc3ccc(Cl)cc3)cc2)n(C)n1 tested on human NAMPT (Homo sapiens (Human)).
1.11 µM

GET AC1.4 Human where system = human NAMPT (Homo sapiens (Human)) and item = CN(C)S(=O)(=O)N1CCC[C@@H](c2ccc(NC(=O)OCc3cnco3)cc2)C1
0.24 µM

Write down the reported AC1.4 Human (system: human NAMPT (Homo sapiens (Human))) of CN1CCN(C(=O)Cc2ccc(NC(=O)OCc3ccc(Cl)cc3)cc2)C2CC21 (stereo not drawn)
1.50 µM

Tell me AC1.4 Human of COCCN1CCC(Cc2ccc(NC(=O)OCc3cnco3)cc2)CC1 when tested on human NAMPT (Homo sapiens (Human)).
4.16 µM

Enter measured AC1.4 Human, system human NAMPT (Homo sapiens (Human)), for the molecule shown: CCC(=O)N1CCC2(CC(Cc3ccc(NC(=O)OCc4cnco4)cc3F)C2)C1 (stereo not drawn)
0.07 µM

Please indicate recorded AC1.4 Human of COc1ccc(COC(=O)Nc2ccc(Cc3ccncc3)cc2)cc1 measured with human NAMPT (Homo sapiens (Human)).
2.83 µM

Report its AC1.4 Human with human NAMPT (Homo sapiens (Human)) as the test system: O=C(Nc1ccc(CC2CCN(C3COC3)C3CC23)cc1)OCc1cnco1 (stereo not drawn)
0.84 µM

Give the observed AC1.4 Human of CC1(O)CCN(C(=O)Cc2ccc(NC(=O)OCc3ccc(Cl)cc3)cc2)CC1 for human NAMPT (Homo sapiens (Human)).
0.95 µM

Fill in: AC1.4 Human on human NAMPT (Homo sapiens (Human)), entry O=C(Nc1ccc(C2CCN(CC(F)F)CC2)cc1)OCc1cnco1
0.94 µM

Under human NAMPT (Homo sapiens (Human)): report AC1.4 Human of CN(C)S(=O)(=O)N1CCC(Cc2ccc(NC(=O)OCc3cnco3)cc2F)CC1 .
0.08 µM
